procedure_summary: Single dose PK, monkey
Type: in vivo
cond: in vivo; Monkey oral 2 mg/kg single dose
parameter_measured: Tmax

Supply reported Tmax belonging to this compound: N#Cc1cnc(Nc2cc(NCC3CNCCO3)c(C(F)(F)F)cn2)cn1 (stereo not shown)
1 to 2 h

###

procedure_summary: Phase 1 clinical trial, SRA737 in combination with gemcitabine dose escalation
Type: in vivo, human
cond: human, plasma, oral; 300 mg; Day −7; mean, n = 7
Experimental: A Phase 1 clinical trial was conducted in ‘all corners,’ i.e. no genetic selection was performed, to establish safety, tolerability and pharmacokinetics for SRA737 administered in combination with gemcitabine (“Dose Escalation Phase”). […] At this dose, the Cmin (52 ng/mL) exceeded that determined in preclinical models to be effective. Additional cohorts are monitored escalating the dose of SRA737 until the maximum tolerated dose (MTD) is identified and to optimize combination dosing with gemcitabine. […]
parameter_measured: half-life (h)
One number for each entry, in h.

Supply reported half-life belonging to this molecule: N#Cc1cnc(Nc2cc(NCC3CNCCO3)c(C(F)(F)F)cn2)cn1 (stereo not shown)
11.8

###

procedure_summary: Phase 1 clinical trial, SRA737 monotherapy dose escalation
Format: in vivo, human
cond: human, in vivo, 600 mg, T1/2
Procedure: A Phase 1 clinical trial was conducted in ‘all comers,’ i.e. no genetic selection was performed, to establish safety, tolerability and pharmacokinetics (“Dose Escalation Phase”). […] Cmin was calculated at 1000 mg QD (411 ng/mL) and exceeded that determined in preclinical models to be effective. […]
parameter_measured: half-life
Please answer using a numeric value trailed by its unit.

Supply reported half-life belonging to this molecule: N#Cc1cnc(Nc2cc(NCC3CNCCO3)c(C(F)(F)F)cn2)cn1 (stereo not shown)
12.9 h

###

procedure_summary: Phase 1 clinical trial, SRA737 in combination with gemcitabine dose escalation
Assay type: in vivo, human
cond: human, plasma, oral, 80 mg; Day −7; mean, n = 3
parameter_measured: Tmax (h)
Give bare numbers, in h.

Supply reported Tmax belonging to this compound: N#Cc1cnc(Nc2cc(NCC3CNCCO3)c(C(F)(F)F)cn2)cn1 (stereo not shown)
2

###

procedure_summary: GLP 28-day repeat oral dose toxicity and toxicokinetics, mouse
cond: female, mouse, in vivo, po, 10 mg/kg/day
parameter_measured: AUC(0-t) (ng·h/mL)
Give bare numbers, in ng·h/mL.

Supply reported AUC(0-t) belonging to this compound: N#Cc1cnc(Nc2cc(NCC3CNCCO3)c(C(F)(F)F)cn2)cn1 (stereo not shown)
3610

###

procedure_summary: GLP 28-day repeat oral dose toxicity and toxicokinetics, monkey
Format: in vivo
cond: in vivo, po; Monkey Male; 20 mg/kg/day (NOAEL), daily dosing for 28 days
parameter_measured: AUC(0-t)

Supply reported AUC(0-t) belonging to this compound: N#Cc1cnc(Nc2cc(NCC3CNCCO3)c(C(F)(F)F)cn2)cn1 (stereo not shown)
20700 ng·h/mL

###

procedure_summary: Phase 1 clinical trial, SRA737 in combination with gemcitabine dose escalation
Type: in vivo, human
cond: human, plasma, oral, 40 mg; Day −7; mean, n = 6
parameter_measured: Cmax (ng/mL)
One number for each entry, in ng/mL.

Supply reported Cmax belonging to this compound: N#Cc1cnc(Nc2cc(NCC3CNCCO3)c(C(F)(F)F)cn2)cn1 (stereo not shown) [SRA737]
106

###

procedure_summary: GLP 28-day repeat oral dose toxicity and toxicokinetics, mouse
cond: male, mouse, in vivo, po, 40 mg/kg/day
parameter_measured: AUC(0-t)
Please answer using a numeric value trailed by its unit.

Supply reported AUC(0-t) belonging to this compound: N#Cc1cnc(Nc2cc(NCC3CNCCO3)c(C(F)(F)F)cn2)cn1 (stereo not shown) [SRA737]
34.3 µg·h/mL

These entries and their values trace back to patent US20200397796A1.
